Target: Aspartate--tRNA(Asp/Asn) ligase (Mycobacterium tuberculosis (strain ATCC 25618 / H37Rv))
Assay: Assay for Asp RNA synthetase-1 from Mycobacterium tuberculosis
Format: functional
Set-up: scale not given: in the data most compounds retested in dose-response had high values
Conditions: 30 µM
property-name: Percent Effect (%)

- compound: "CCCn1nc(C)c(CNC(=O)C2COc3c(cccc3OC)C2)c1C (configuration not stated)"
  display-unit: "%"
  meas-value: 0.114
- compound: "Cc1nc(CN2CCN(C(=O)c3cc(C4CC4)on3)CC2)cs1"
  display-unit: "%"
  meas-value: -5.68
- compound: "Cc1c(C(=O)NC(C)C(C)C)nnn1-c1cccc2c1CCN(C)C2 (configuration not stated)"
  display-unit: "%"
  meas-value: 2.19
- compound: "O=c1c2ccccc2nc2n1C(CSc1ccc(Cl)cc1Cl)CN2 (configuration not stated)"
  display-unit: "%"
  meas-value: 4.53
- compound: "Cc1n[nH]c(C)c1NC(=O)CN1CCc2c(nc(C3CC3)n2C)C1"
  display-unit: "%"
  meas-value: 4.55
- compound: "CN1CCC(C(=O)NCc2nncn2-c2ccccc2)CC1=O (configuration not stated)"
  display-unit: "%"
  meas-value: -4.57
- compound: "COCCN1CCC2(CCCN(c3ncccn3)C2)C1 (configuration not stated)"
  display-unit: "%"
  meas-value: -4.34
- compound: "CN(C)CC1CN(Cc2cccc(C(=O)N(C)C)c2)CCO1 (configuration not stated)"
  display-unit: "%"
  meas-value: -3.06
- compound: "Cc1cccc(OCCC(=O)NCC(C)(C)C(N)=O)c1"
  display-unit: "%"
  meas-value: 0.144
- compound: "COCCOc1ccc(NC(=O)C2CCC2)cn1"
  display-unit: "%"
  meas-value: -1.46
- compound: "Cc1cnn(CCNCc2ccc(F)cc2Cl)c1"
  display-unit: "%"
  meas-value: 0.495
- compound: "O=C(CCC1CCCC1)N1CCC(c2ncc3c(n2)CCNC3)CC1"
  display-unit: "%"
  meas-value: -3.47
- compound: "CC(NC(=O)c1ccc2c(c1)OCC(=O)N2)c1ccccc1F (configuration not stated)"
  display-unit: "%"
  meas-value: 7.05
- compound: "N#Cc1ccc(C(=O)N2CCn3c(Cn4cccn4)cnc3C2)cc1"
  display-unit: "%"
  meas-value: 1.54
- compound: "O=C1NCCN1C1CCCN(Cc2coc(-c3ccc(F)cc3)n2)C1 (configuration not stated)"
  display-unit: "%"
  meas-value: -2.94
- compound: "O=c1ccc(-c2cccs2)nn1CN1CCCCCC1"
  display-unit: "%"
  meas-value: -1.83
- compound: "COCCC(=O)Nc1ccnc(Oc2ccccc2)c1"
  display-unit: "%"
  meas-value: 13.9
- compound: "CCNc1cc2c(nn1)CCN(C(=O)Cc1c(C)noc1C)C2"
  display-unit: "%"
  meas-value: 0.225
- compound: "CCc1ccc(O)c(C(=O)NC2CCN(Cc3ccncc3)CC2)c1"
  display-unit: "%"
  meas-value: -4.26
- compound: "CCS(=O)(=O)c1ccccc1N1CCC(NC(C)=O)CC1"
  display-unit: "%"
  meas-value: -0.991
- compound: "CC(C)Cc1nc(OCC(N)=O)c(C#N)c2c1CCC2"
  display-unit: "%"
  meas-value: 2.64
- compound: "CC1CCCCN1CCNC(=O)c1ccn(-c2ccc(F)cc2)n1 (configuration not stated)"
  display-unit: "%"
  meas-value: 3.98
- compound: "COc1cccc(COCC(=O)N2CCN(CC(C)(C)O)CC2)c1"
  display-unit: "%"
  meas-value: -1.7
- compound: "c1ccc(CN2CCC3(CC2)CCN(Cc2cccs2)C3)nc1"
  display-unit: "%"
  meas-value: 1.23
- compound: "Cc1cccc(CS(=O)(=O)CC(=O)NCCCOC(C)C)c1"
  display-unit: "%"
  meas-value: -3.37
- compound: "C[C@@H]1C(=O)NC[C@H]2CN(CCc3ccccc3)C[C@H]21"
  display-unit: "%"
  meas-value: 4.21
- compound: "CCc1cnc(N2CCC3(CC2)CN(c2cccnc2)C(=O)CO3)nc1"
  display-unit: "%"
  meas-value: 6.49
- compound: "CN(C)CC(=O)N1Cc2nc(C(=O)NCc3ccncc3)oc2C1"
  display-unit: "%"
  meas-value: 4.86
- compound: "Cc1nc(C)n(CC2CCCN2Cc2cn(-c3ccccc3)nn2)n1 (configuration not stated)"
  display-unit: "%"
  meas-value: -2.81
- compound: "O=C(NC1CCS(=O)(=O)C1)N1CCN(c2cnccn2)CC1 (configuration not stated)"
  display-unit: "%"
  meas-value: -1.72
- compound: "Cc1cccc(CN2C[C@@H]3COC[C@]3(CNC(=O)N3CCCC3)C2)n1"
  display-unit: "%"
  meas-value: 2.42
- compound: "O=C(c1ccc(F)cc1)N1CCC2(CCCN2CC2CC2)CC1"
  display-unit: "%"
  meas-value: -2.16
- compound: "CC(=O)N(Cc1ncc(C(C)C)o1)C1CCN(Cc2ncc[nH]2)C1 (configuration not stated)"
  display-unit: "%"
  meas-value: 5.3
- compound: "COCC1CN(Cc2ccc(OC)cc2)Cc2nn(C)cc21 (configuration not stated)"
  display-unit: "%"
  meas-value: 14.5
- compound: "CN(C)C1CCN(C(=O)NCc2ccc(Cn3cncn3)cc2)CC1"
  display-unit: "%"
  meas-value: -3.07
- compound: "O=C(c1ccc(F)c(Cl)c1)N1C[C@@H]2CC[C@H](C1)N(Cc1ccccc1)C2"
  display-unit: "%"
  meas-value: 4.06
- compound: "Cc1ccc(CC(=O)N2CCOC(c3nc(C)n[nH]3)C2)cn1 (configuration not stated)"
  display-unit: "%"
  meas-value: 1.92
- compound: "Cc1cc(C)c(CNC(=O)NCC(O)c2cccc(F)c2)c(=O)[nH]1 (configuration not stated)"
  display-unit: "%"
  meas-value: 2.36
- compound: "Cc1nnc2n1CCN(C(C(=O)NC1CC1)c1ccccc1)C2 (configuration not stated)"
  display-unit: "%"
  meas-value: -4.48
- compound: "CC(Nc1cccc(CN2CCOC2=O)c1)C(=O)Nc1ccccc1F (configuration not stated)"
  display-unit: "%"
  meas-value: 1.17
- compound: "CN(Cc1cnccn1)C(=O)c1ccnc(OC2CCC2)c1"
  display-unit: "%"
  meas-value: 3.71
- compound: "CC(=O)N1CCOC(c2cc(N3CC(O)C3)nc(C)n2)C1 (configuration not stated)"
  display-unit: "%"
  meas-value: -3.6
- compound: "CC1=NN(c2ccc(C(=O)N3CCCC(n4ccnc4)C3)cc2)CC1 (configuration not stated)"
  display-unit: "%"
  meas-value: 1.08
- compound: "COc1ccc([C@@H]2CN(C(=O)CCC(F)(F)F)C[C@H]2NC(C)=O)cc1"
  display-unit: "%"
  meas-value: -2.84
- compound: "CN(C)C(=O)[C@@H]1CCO[C@@H]2CCN(CCc3ccccc3)C[C@@H]21"
  display-unit: "%"
  meas-value: -3.08
- compound: "Cc1cc(C2CCCN2CCCc2nc3ccccc3o2)on1 (configuration not stated)"
  display-unit: "%"
  meas-value: -0.533
- compound: "CC(=O)N1CCN(c2cc(C3CN(C)CCO3)nc(C)n2)CC1 (configuration not stated)"
  display-unit: "%"
  meas-value: 0.67
